Listed here are compounds together with their documented solubility in water, corresponding thalidomide amount.
- PROTOCOL_CONDITIONS: thalidomide equivalent of the water solubility
READOUT_NAME: solubility in water, corresponding thalidomide amount

{"COMPOUND": "CNC(C)C(=O)OCN1C(=O)CCC(N2C(=O)c3ccccc3C2=O)C1=O.Cl (stereo not shown) [Compound 4]", "RESULT": "> 190 mg thalidomide/ml"}
{"COMPOUND": "CC(C)C(N)C(=O)OCN1C(=O)CCC(N2C(=O)c3ccccc3C2=O)C1=O.Cl (stereo not shown) [Compound 6]", "RESULT": "> 190 mg thalidomide/ml"}
{"COMPOUND": "Cl.NCC(=O)OCN1C(=O)CCC(N2C(=O)c3ccccc3C2=O)C1=O (stereo not shown) [Compound 2]", "RESULT": "33.6 mg thalidomide/ml"}
{"COMPOUND": "Cl.NCC(=O)NCC(=O)OCN1C(=O)CCC(N2C(=O)c3ccccc3C2=O)C1=O (stereo not shown) [Compound 8]", "RESULT": "> 190 mg thalidomide/ml"}
